# System: A375 F11 cells
# Assay method text: Cell growth inhibition assay (Cell Titer Glo, 3 days)
# Format: cell-based
# Condition notes: Homo sapiens, 72 h, F11: NRAS WT, MEK1 WT, single agent, mean ± std, read-out: IC50, Single Agent Effect, Compound A
Endpoint label: IC50 (nM)
Only the number, expressed in nM, is required.

Input line: Tell me the measured IC50 of CC(C)(C)c1nc(-c2cccc(NS(=O)(=O)c3c(F)cccc3F)c2F)c(-c2ccnc(N)n2)s1 , please.
Output line: 24

###

# Tested on: 16R5-5 (A375 F11 clone with acquired resistance to Compound A)
# Assay method text: Cell growth inhibition assay (Cell Titer Glo, 3 days)
# Type: cell-based
# Condition notes: Homo sapiens, A-375, 72 h, 16R5-5: NRAS Q61Q/K, MEK1 P387P/S, single agent, read-out: IC50, Single Agent Effect, Compound A
Endpoint label: IC50

Input line: For the compound shown here, CC(C)(C)c1nc(-c2cccc(NS(=O)(=O)c3c(F)cccc3F)c2F)c(-c2ccnc(N)n2)s1 , give the reported IC50.
Output line: > 10 µM
